# assay.target: full-length beta-Catenin (Uniprot ID P35222) (Homo sapiens (Human)) (UniProt P35222)
# method: fluorescence polarization competition; peptide titrated against 10 nM full-length beta-catenin + 10 nM 5FAM-TCF4(10-53)
Starred links: 1 amine or outer side, 2 acyl side, 3 side chain; linkers in the order of their positions; H or OH if unused. Positions of bridges follow the written chain, without caps; N, C: chain ends. Non-standard residues stand in square brackets, D forms with d. Primed or numbered codes have the meaning given here. PyrS2″ = (S)-3-amino-1-((pent-4-en-1-yloxy)carbonyl)pyrrolidine-3-carboxylic acid (stapling residue), C=CCCCOC(=O)N1CC[C@@](N[*:1])(C(=O)[*:2])C1; B5(4) = 2,2-bis(4-pentenyl)glycine = 2-amino-2-(pent-4-en-1-yl)hept-6-enoic acid (stitching residue), C=CCCCC(CCCC=C)(N[*:1])C(=O)[*:2]; B5(5) = 2,2-bis(4-pentenyl)glycine, 2-amino-2-(pent-4-en-1-yl)hept-6-enoic acid (stitching residue), C=CCCCC(CCCC=C)(N[*:1])C(=O)[*:2]; TfeGA = (S)-2-amino-3-((carboxymethyl)(2,2,2-trifluoroethyl)amino)propanoic acid, O=C([C@H](CN(CC(=O)[*:3])CC(F)(F)F)N[*:1])[*:2]; B5(3) = 2,2-bis(4-pentenyl)glycine (stitching residue), C=CCCCC(CCCC=C)(N[*:1])C(=O)[*:2]; Phe(3-CONH2) = NC(=O)c1cccc(C[C@H](N)C(=O)O)c1; Phe(2-CONH2) = NC(=O)c1ccccc1C[C@H](N)C(=O)O; Phe(2-Me) = Cc1ccccc1C[C@H](N)C(=O)O; Bta = N[C@@H](Cc1csc2ccccc12)C(=O)O; Lys(iPr) = CC(C)NCCCC[C@H](N)C(=O)O; αAllylPro = C=CC[C@@]1(C(=O)O)CCCN1; tBuAla = CC(C)(C)C[C@H](N)C(=O)O; 3Thi = N[C@@H](Cc1ccsc1)C(=O)O; Cha = N[C@@H](CC1CCCCC1)C(=O)O; S8 = C=CCCCCCC[C@](C)(N)C(=O)O; hSer = N[C@@H](CCO)C(=O)O
measurement.kind: IC50 (nM)

I. Ac-[αAllylPro]N[Cha][B5(5)]DQ[Lys(iPr)]AFN[PyrS2″]N[Bta][hSer]-NH2 (staple 1-4, 4-11) [I-2170]
II. Ac-[αAllylPro]D[tBuAla][B5(4)]D[TfeGA]AAFL[PyrS2″][3Thi][Bta][Phe(3-CONH2)]-NH2 (staple 1-4, 4-11) [I-1708]
III. Ac-[αAllylPro]D[tBuAla][B5(3)]DEAAFL[PyrS2″]F[Bta]Q-NH2 (staple 1-4, 4-11; not fully specified; printed as Ac-PL3-Asp-Npg-B5-Asp-Glu-Ala-Ala-Phe-Leu-PyrS2-Phe-BztA-Gln-NH2) [I-1073]
IV. Ac-[αAllylPro]DA[B5(4)]DDAA[Phe(2-Me)]A[S8]F[Bta]Q-NH2 (staple 1-4, 4-11; also: later-eluting staple isomer) [I-366]
V. Ac-[αAllylPro]N[Cha][B5(5)]DQ[Lys(iPr)]A[Phe(2-CONH2)]N[PyrS2″]F[Bta][hSer]-NH2 (staple 1-4, 4-11) [I-2173]
Reorder the items by IC50, least to greatest. // respond by listing labels in the order requested
II, III, IV, V, I
(II: 29 nM, III: 409 nM, IV: 1440 nM, V: 3070 nM, I: 10000 nM)
